Data origin, for the record: PubChem BioAssay (NCI)

Assay: NCI Yeast Anticancer Drug Screen. Data for the mec2-1 strain (AID 157)
Details: S. cerevisiae mec2-1 strain, at 3.7 µM, stronger effect = higher value
Compounds without any hit were thinned out: in the full panel of roughly 79,000, 15% have a hit.
Hi there, I'd appreciate the recorded growth inhibition for every entry that follows.
Note: unit % is implicit; provide only the numeric part.

# growth inhibition lookup, item CC(C)c1[nH]nc(C(N)=O)c1N=NN(C)C -1

Now the same for Cc1c(-c2ccccc2)[nH]c2ccccc12 8

Now the same for Cc1ccc(S(=O)(=O)Nc2ccc3c(c2)C(O)c2ccccc2-3)cc1 (stereo unspecified) -3

Now the same for CC(=O)N1C(=O)/C(=C\C(=O)c2ccc([N+](=O)[O-])cc2)c2ccccc21 13

Now the same for O=c1[nH]c2ccccc2c2nc3ccccc3n12 -50

Now the same for Cc1cc(OCc2ccccc2)ccc1[N+](=O)[O-] 15

Now the same for COc1ccc(SCc2cc(OC)ccc2OC)cc1 -7

Now the same for COc1cccc(C(c2cc3c(cc2O)OCO3)N2CCOCC2)c1OC (stereo unspecified) -1

Now the same for CC(C)(O)c1ccccc1C(c1ccccc1)c1ccccc1 0

Now the same for CC1CCC2(C(=O)O)CCC3(C)C(=CCC4C5(C)CC(O)C(O)C(C)(CO)C5C(O)CC43C)C2C1C (stereo unspecified) -6

Now the same for CCOC(=O)[C@]1(Br)CC[C@@]1(Br)C(=O)OCC -25
